# Test system: Candida albicans
# protocol description: Antifungal activity against Candida albicans NCIM 3102 after 48 hrs by agar well diffusion assay
# Assay type: functional
# condition info: NCIM 3102, 48 h
endpoint name: MIC (µg/mL)
Quick reminder: number only, in µg/mL, skip the unit.

Look over these answered cases.
compound: Cc1ccc(S(=O)(=O)NC(=O)Nc2ccccc2C(=O)/C=C/c2cccnc2)cc1
assay system: Candida albicans
endpoint name: MIC
data value: 128
--
compound: Cc1ccc(S(=O)(=O)NC(=O)Nc2ccccc2C(=O)/C=C/c2ccccc2)cc1
assay system: Candida albicans
endpoint name: MIC
data value: 512
--
compound: COc1cccc(/C=C/C(=O)c2ccccc2NC(=O)NS(=O)(=O)c2ccc(C)cc2)c1
assay system: Candida albicans
endpoint name: MIC
data value: 128
--
compound: Cc1ccc(S(=O)(=O)NC(=O)Nc2ccccc2C(=O)/C=C/c2ccccc2O)cc1
assay system: Candida albicans
endpoint name: MIC
data value: 256

Let's switch to this compound now.
**Query** Please supply the value of reported MIC for the item CC(=O)N1CCN(c2ccc(OCC3COC(Cn4ccnc4)(c4ccc(Cl)cc4Cl)O3)cc2)CC1 (stereo not given)
**Result** 16
